system-tested: BCR fusion to kinase domain of MerTK (Ba/F3-MerTK) (Homo sapiens)
assay-name: In Cell TAM Kinase Assay Using BaF3 Cellular System
Type: cell-based, murine
protocol-conditions: Ba/F3 BCR-kinase fusion proliferation, 72 hours, Cell Titer Glo; kinase not given; read-out: IC50
assay-metric: IC50

Hello, I am looking for reported IC50 with BCR fusion to kinase domain of MerTK (Ba/F3-MerTK) (Homo sapiens) for "Cn1cc(-c2cnc(N)c(C(=O)N[C@@H]3CCN(C(=O)c4ccc(-c5ccc6c(ccn6C)c5)cc4)C3)c2)cn1" . Could you help?
> 1000 nM

Form field - read-out: IC50; system: BCR fusion to kinase domain of MerTK (Ba/F3-MerTK) (Homo sapiens); submitted item: CN1CCCC1CCOc1ccc2cc(C(=O)N3CC[C@@H](NC(=O)c4cc(-c5cnn(C)c5)cnc4N)C3)ccc2c1 (some centres unmarked)
> 1000 nM

Requested read-out IC50, target or system BCR fusion to kinase domain of MerTK (Ba/F3-MerTK) (Homo sapiens), entry "Cn1cc(-c2cnc(N)c(C(=O)NC[C@H]3CCN(C(=O)c4ccc(-c5ccccc5)cc4)C3)c2)cn1"
> 1000 nM

# query: IC50 | item "Cn1cc(-c2cnc(N)c(C(=O)N[C@@H]3CCN(C(=O)c4ccc(-c5ccc(Cl)s5)cc4)C3)c2)cn1" | system: BCR fusion to kinase domain of MerTK (Ba/F3-MerTK) (Homo sapiens)
> 1000 nM

Lab request: please report IC50 under test system BCR fusion to kinase domain of MerTK (Ba/F3-MerTK) (Homo sapiens) for "Cn1cc(-c2cnc(N)c(C(=O)N[C@@H]3CCN(C(=O)c4ccc(-c5ccc(F)cc5F)cc4)C3)c2)cn1"
> 1000 nM

Lab note: need IC50 for "Cn1cc(-c2cnc(N)c(C(=O)N[C@@H]3CCN(C(=O)c4ccc5cnccc5n4)C3)c2)cn1" on BCR fusion to kinase domain of MerTK (Ba/F3-MerTK) (Homo sapiens), anyone have it?
> 1000 nM

For BCR fusion to kinase domain of MerTK (Ba/F3-MerTK) (Homo sapiens), provide IC50 of "Cn1cc(-c2cnc(N)c(C(=O)N[C@@H]3CCN(C(=O)c4ccc(OCc5ccc([N+](=O)[O-])cc5)cc4)C3)c2)cn1" please.
> 1000 nM

Find the measured IC50: item "Cn1cc(-c2cnc(N)c(C(=O)N[C@@H]3CCN(C(=O)c4cc5cc(Br)ccc5s4)C3)c2)cn1" , target or system BCR fusion to kinase domain of MerTK (Ba/F3-MerTK) (Homo sapiens).
500 to 1000 nM

Please state recorded IC50 (tested on BCR fusion to kinase domain of MerTK (Ba/F3-MerTK) (Homo sapiens)) of "Cn1cc(-c2cnc(N)c(C(=O)N[C@@H]3CCN(C(=O)c4ccc(-c5ccc(Oc6ccc(C=O)cc6)cc5)cc4)C3)c2)cn1"
> 1000 nM

API: value(readout= IC50, system= BCR fusion to kinase domain of MerTK (Ba/F3-MerTK) (Homo sapiens), query= "Cc1cscc1-c1ccc(C(=O)N2CC[C@@H](NC(=O)c3cc(-c4cnn(C)c4)cnc3N)C2)cc1" )
500 to 1000 nM

Give the reported IC50 for "Cn1cc(-c2cnc(N)c(C(=O)N[C@@H]3CCN(C(=O)c4ccc(-c5cccc(-c6nnnn6C)c5)cc4)C3)c2)cn1" (system: BCR fusion to kinase domain of MerTK (Ba/F3-MerTK) (Homo sapiens)).
500 to 1000 nM

Notebook entry, BCR fusion to kinase domain of MerTK (Ba/F3-MerTK) (Homo sapiens) assay: IC50 of "Cn1cc(-c2cnc(N)c(C(=O)N[C@@H]3CCN(C(=O)c4ccc(-c5ccc6c(cnn6C)c5)cc4)C3)c2)cn1" = ?
> 1000 nM

Please tell me: IC50 of "Cn1cc(-c2cnc(N)c(C(=O)N[C@@H]3CCN(C(=O)c4ccc(-c5cccc(-c6nnn[nH]6)c5)cc4)C3)c2)cn1" , system BCR fusion to kinase domain of MerTK (Ba/F3-MerTK) (Homo sapiens)?
> 1000 nM

Test system BCR fusion to kinase domain of MerTK (Ba/F3-MerTK) (Homo sapiens); read-out IC50; what value for "CC(C)c1cccc(-c2ccc(C(=O)N3CC[C@@H](NC(=O)c4cc(-c5cnn(C)c5)cnc4N)C3)cc2)c1" ?
500 to 1000 nM

---

system-tested: BCR fusion to kinase domain of MerTK (Ba/F3-MerTK) (Homo sapiens, UniProt Q12866)
Sequence (Q12866 21-999 limits assumed, change not shown): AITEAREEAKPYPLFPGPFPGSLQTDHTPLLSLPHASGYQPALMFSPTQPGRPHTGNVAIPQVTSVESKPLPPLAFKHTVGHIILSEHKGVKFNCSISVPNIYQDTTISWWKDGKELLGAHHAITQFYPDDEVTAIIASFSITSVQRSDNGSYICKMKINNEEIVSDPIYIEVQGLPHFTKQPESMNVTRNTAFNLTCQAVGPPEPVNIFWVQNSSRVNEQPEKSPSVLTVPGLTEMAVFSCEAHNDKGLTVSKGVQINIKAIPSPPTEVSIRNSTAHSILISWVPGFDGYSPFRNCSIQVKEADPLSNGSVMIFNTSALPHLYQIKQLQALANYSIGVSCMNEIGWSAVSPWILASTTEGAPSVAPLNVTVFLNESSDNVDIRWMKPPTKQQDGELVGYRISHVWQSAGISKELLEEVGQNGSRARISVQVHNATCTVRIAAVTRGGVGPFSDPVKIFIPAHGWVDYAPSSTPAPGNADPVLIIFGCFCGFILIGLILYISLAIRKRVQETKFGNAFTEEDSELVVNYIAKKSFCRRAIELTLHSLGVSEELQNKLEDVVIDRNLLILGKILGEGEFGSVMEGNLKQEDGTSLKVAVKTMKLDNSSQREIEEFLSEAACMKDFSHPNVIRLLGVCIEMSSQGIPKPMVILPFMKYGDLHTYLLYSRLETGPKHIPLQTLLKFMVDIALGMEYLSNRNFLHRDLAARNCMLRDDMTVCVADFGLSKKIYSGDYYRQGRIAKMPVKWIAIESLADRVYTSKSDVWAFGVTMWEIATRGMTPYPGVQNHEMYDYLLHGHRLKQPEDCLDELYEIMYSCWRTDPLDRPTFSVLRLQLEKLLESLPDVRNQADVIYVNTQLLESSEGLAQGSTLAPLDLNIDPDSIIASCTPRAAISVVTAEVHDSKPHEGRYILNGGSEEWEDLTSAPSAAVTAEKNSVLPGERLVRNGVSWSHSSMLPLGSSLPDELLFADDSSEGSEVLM
assay-name: In Cell TAM Kinase Assay Using BaF3 Cellular System
Format: cell-based, murine
protocol-conditions: Ba/F3 BCR-kinase fusion proliferation, 72 hours, Cell Titer Glo; kinase not given; read-out: IC50
assay-metric: IC50

Entry under review: "Cn1cc(-c2cnc(N)c(C(=O)N[C@@H]3CCN(C(=O)C(=O)c4ccccc4)C3)c2)cn1" . Reported IC50?
> 1000 nM

Field request: IC50 | item: "Cc1cc(N)ccc1N(C)c1ccc(-c2ccc(C(=O)N3CC[C@@H](NC(=O)c4cc(-c5cnn(C)c5)cnc4N)C3)cc2)cc1"
> 1000 nM

Recorded IC50 of "CN(C)Cc1ccc(Oc2ccc(-c3ccc(C(=O)N4CC[C@@H](NC(=O)c5cc(-c6cnn(C)c6)cnc5N)C4)cc3)cc2)cc1" , please.
100 to 500 nM

# lookup: IC50 of "Cn1cc(-c2cnc(N)c(C(=O)N[C@@H]3CCN(C(=O)c4ccc5cc(NC6CCN(CCO)CC6)ccc5c4)C3)c2)cn1"
> 1000 nM

# input compound: "CCN(c1ccc2cc(C(=O)N3CC[C@@H](NC(=O)c4cc(-c5cnn(C)c5)cnc4N)C3)ccc2c1)C1CC(C)(C)N(C)C(C)(C)C1" ; wanted: its IC50
100 to 500 nM

Given the entry "Cn1cc(-c2cnc(N)c(C(=O)NC[C@@H]3CCCN3C(=O)c3ccc(-c4ccccc4)cc3)c2)cn1" , report its measured IC50.
> 1000 nM

// lookup IC50 for "Cn1cc(-c2cnc(N)c(C(=O)N[C@@H]3CCN(C(=O)c4ccc(-c5ccc(Oc6cccnc6)cc5)cc4)C3)c2)cn1"
> 1000 nM

State the recorded IC50 for this entry: "CN1CCC(Cc2ccc(-c3ccc(C(=O)N4CC[C@@H](NC(=O)c5cc(-c6cnn(C)c6)cnc5N)C4)cc3)cc2)CC1"
> 1000 nM

---

system-tested: human MER (528-end) (Homo sapiens (Human))
Sequence (Q12866 528-999 limits assumed): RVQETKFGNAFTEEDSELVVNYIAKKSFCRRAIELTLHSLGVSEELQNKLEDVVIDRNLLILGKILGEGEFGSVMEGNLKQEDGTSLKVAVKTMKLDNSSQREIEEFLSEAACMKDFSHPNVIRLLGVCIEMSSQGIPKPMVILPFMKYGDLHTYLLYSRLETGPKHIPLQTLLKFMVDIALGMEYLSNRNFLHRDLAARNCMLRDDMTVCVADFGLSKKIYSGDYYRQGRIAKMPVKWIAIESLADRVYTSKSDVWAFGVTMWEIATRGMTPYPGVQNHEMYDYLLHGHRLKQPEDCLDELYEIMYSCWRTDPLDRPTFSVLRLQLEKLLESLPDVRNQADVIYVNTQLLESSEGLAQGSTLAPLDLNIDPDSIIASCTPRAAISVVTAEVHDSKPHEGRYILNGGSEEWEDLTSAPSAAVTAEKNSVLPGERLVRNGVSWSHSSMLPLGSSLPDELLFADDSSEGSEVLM
assay-metric: IC50

Name the recorded IC50 for "Nc1ncc(-c2ccccc2C(=O)O)cc1C(=O)N[C@@H]1CCN(C(=O)c2ccc(-c3ccc(F)cc3Cl)cc2)C1" .
> 1000 nM

Entry "Nc1ncc(-c2ccccc2)cc1C(=O)N[C@@H]1CCN(C(=O)c2ccc(-c3ccc(F)cc3Cl)cc2)C1" has what IC50?
100 to 1000 nM

Entry "Cn1cc(-c2cnc(N)c(C(=O)N[C@@H]3CCN(C(=O)c4ccc5c(ccn5CC5CCNCC5)c4)C3)c2)cn1" has what IC50?
100 to 1000 nM

// returns reported IC50 for input "Cc1c(-c2ccc(C(=O)N3CC[C@@H](NC(=O)c4cc(-c5cnn(C)c5)cnc4N)C3)cc2)cnn1C"
10 to 100 nM

Would you mind telling me what IC50 value was observed for "Cn1cc(-c2cnc(N)c(C(=O)N[C@@H]3CCN(C(=O)c4cc5cc(-c6ccccc6)ccc5o4)C3)c2)cn1" ?
> 1000 nM

GET /values?readout=IC50&item= "Cn1cc(-c2cnc(N)c(C(=O)N[C@@H]3CCN(C(=O)c4ccc(-c5ccnc(N6CCNCC6)c5)cc4)C3)c2)cn1"
100 to 1000 nM

Would you mind telling me what IC50 value was observed for "Cn1cc(-c2cnc(N)c(C(=O)N[C@@H]3CCN(C(=O)c4ccc(-c5ccc(O)nc5)cc4)C3)c2)cn1" ?
> 1000 nM

Please look up its IC50: "Cn1cc(-c2cnc(N)c(C(=O)N[C@@H]3CCN(C(=O)c4nc(-c5ccccc5)oc4C(F)(F)F)C3)c2)cn1"
> 1000 nM

For the molecule shown here, "Cn1cc(-c2cnc(N)c(C(=O)N[C@@H]3CCN(C(=O)c4cccc(-c5ccncc5)c4)C3)c2)cn1" , give the reported IC50.
> 1000 nM

Quick check: IC50 of "Cn1cc(-c2cnc(N)c(C(=O)N[C@@H]3CCN(C(=O)c4ccc(-c5ccc6c(cnn6C)c5)cc4)C3)c2)cn1" ?
100 to 1000 nM

I am curious: what IC50 value has been reported for "Cn1cc(-c2cnc(N)c(C(=O)N[C@@H]3CCN(C(=O)Oc4cccc(-c5ccc(CNCCN)cc5)c4)C3)c2)cn1" ?
100 to 1000 nM

Fill blank: measured IC50 of the molecule "Cn1cc(-c2cnc(N)c(C(=O)N[C@@H]3CCN(C(=O)Oc4cccc(C(=O)N5CCCCC5)c4)C3)c2)cn1" is ____.
> 1000 nM

Query: IC50; subject: "Cn1cc(-c2cnc(N)c(C(=O)N[C@@H]3CCN(C(=O)Nc4cccc(-c5cnn(C6CCNCC6)c5)c4)C3)c2)cn1"
> 1000 nM

Which IC50 value is on record for "Cn1cc(-c2cnc(N)c(C(=O)N[C@@H]3CCN(CCc4ccccc4)C3)c2)cn1" ?
> 1000 nM
